Values compiled from paper PMC3154423.

molecular target: Jun-Jun bZIP K258A (human, UniProt P05412 252-315, K258A); assay: ITC
Sequence (P05412 252-315 K258A): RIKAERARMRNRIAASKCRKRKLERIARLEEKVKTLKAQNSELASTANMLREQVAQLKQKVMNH
value kind: Kd (µM)

binder="TRE duplex 15-mer (dsDNA) DNA 1: CGCGTGACTCACCCC DNA 2: GGGGTGAGTCACGCG" value_kind=Kd result_number=4.43
